# test_protocol: Cytotoxicity against human HEL cells assessed as reduction in cell growth measured after 3 days by coulter counting method
# Type: toxicity, cell-based
# run_parameters: time 3 day
Measured CC50 at 72 h of individual entries

compound: Nc1nc2c(ncn2COCCO)c(=O)[nH]1
op: >
CC50 at 72 h (µM): 444
--
compound: CC(CO)(Cn1cnc2c(=O)[nH]c(N)nc21)OCP(=O)(O)O (racemic)
op: =
CC50 at 72 h (µM): 21.6
--
compound: CC(CO)(Cn1cnc2c(N)ncnc21)OCP(=O)(O)O (racemic)
op: =
CC50 at 72 h (µM): 205
--
compound: O=c1[nH]c(=O)n([C@H]2C[C@H](O)[C@@H](CO)O2)cc1/C=C/Br
op: >
CC50 at 72 h (µM): 300
--
compound: CC(CO)(Cn1ccc(N)nc1=O)OCP(=O)(O)O (racemic)
op: >
CC50 at 72 h (µM): 341

---

# test_protocol: Cytotoxicity against human HEL cells assessed as change in cell morphology measured after 3 days […]
# Assay type: toxicity, cell-based
# run_parameters: time 3 day
Measured MCC at 72 h of individual entries
quantity_measured: MCC at 72 h

compound: O=c1[nH]c(=O)n([C@H]2C[C@H](O)[C@@H](CO)O2)cc1/C=C/Br
quantity_measured: MCC at 72 h
observed_measurement: > 300 µM
//
compound: CC(CO)(Cn1ccc(=O)[nH]c1=O)OCP(=O)(O)O (racemic)
quantity_measured: MCC at 72 h
observed_measurement: > 340 µM
//
compound: CC(CO)(Cn1cnc2c(=O)[nH]c(N)nc21)OCP(=O)(O)O (racemic)
quantity_measured: MCC at 72 h
observed_measurement: 300 µM
//
compound: CC(CO)(Cn1ccc(N)nc1=O)OCP(=O)(O)O (racemic)
quantity_measured: MCC at 72 h
observed_measurement: > 341 µM
//
compound: Cc1cn(CC(C)(CO)OCP(=O)(O)O)c(=O)[nH]c1=O (racemic)
quantity_measured: MCC at 72 h
observed_measurement: > 324 µM
//
compound: Nc1nc2c(ncn2COCCO)c(=O)[nH]1
quantity_measured: MCC at 72 h
observed_measurement: > 444 µM
//
compound: CC(CO)(Cn1cnc2c(N)ncnc21)OCP(=O)(O)O (racemic)
quantity_measured: MCC at 72 h
observed_measurement: > 315 µM

---

# System: Human immunodeficiency virus 2
# test_protocol: Anti-HIV activity against wild type HIV-2 ROD infected in human MT4 cells assessed as inhibition of HIV-induced cytopathic effect measured after 5 days by MTT assay
# Assay type: functional, organism-based
# run_parameters: Human immunodeficiency virus 2, ROD, MT4, 120 h
Measured EC50 of individual entries

compound: C#CC(CO)(Cn1ccc(N)nc1=O)OCP(=O)(O)O (racemic)
EC50: > 412 µM
//
compound: C#CC(CO)(Cn1cnc2c(N)ncnc21)OCP(=O)(O)O (racemic)
EC50: 18 µM
//
compound: Cc1cn(CC(C)(CO)OCP(=O)(O)O)c(=O)[nH]c1=O (racemic)
EC50: > 406 µM
//
compound: C#CC(CO)(Cn1cnc2c(=O)[nH]c(N)nc21)OCP(=O)(O)O (stereo unspecified)
EC50: 1.28 µM
//
compound: CC(CO)(Cn1ccc(N)nc1=O)OCP(=O)(O)O (racemic)
EC50: > 426 µM
//
compound: CC(CO)(Cn1cnc2c(N)ncnc21)OCP(=O)(O)O (racemic)
EC50: > 352 µM
//
compound: Nc1ccn([C@@H]2CS[C@H](CO)O2)c(=O)n1 [LAMIVUDINE]
EC50: 9.9 µM
//
compound: CC(CO)(Cn1cnc2c(=O)[nH]c(N)nc21)OCP(=O)(O)O (racemic)
EC50: 42.1 µM
//
compound: C#CC(CO)(Cn1ccc(=O)[nH]c1=O)OCP(=O)(O)O (racemic)
EC50: > 411 µM
//
compound: C#CC(CO)(Cn1cc(C)c(=O)[nH]c1=O)OCP(=O)(O)O (racemic)
EC50: > 393 µM
//
compound: CC(CO)(Cn1ccc(=O)[nH]c1=O)OCP(=O)(O)O (racemic)
EC50: > 425 µM

---

# Tested on: Human betaherpesvirus 5
# test_protocol: Antiviral activity against HCMV AD-169 infected in HFF cells assessed as reduction in viral replication measured after 14 days
# Type: functional, organism-based
# run_parameters: Human betaherpesvirus 5, AD-169, HFF, 336 h

molecule: C#CC(CO)(Cn1cnc2c(=O)[nH]c(N)nc21)OCP(=O)(O)O (stereo unspecified)
unit_text: µM
EC50: 14.4

molecule: C#CC(CO)(Cn1cnc2c(N)ncnc21)OCP(=O)(O)O (racemic)
unit_text: µM
EC50: 30

molecule: C#CC(CO)(Cn1ccc(=O)[nH]c1=O)OCP(=O)(O)O (racemic)
unit_text: µM
EC50: 150

molecule: C#CC(CO)(Cn1ccc(N)nc1=O)OCP(=O)(O)O (racemic)
unit_text: µM
EC50: 30

molecule: C#CC(CO)(Cn1cc(C)c(=O)[nH]c1=O)OCP(=O)(O)O (racemic)
unit_text: µM
EC50: 30

molecule: Nc1nc2c(ncn2COC(CO)CO)c(=O)[nH]1
unit_text: µM
EC50: 0.86

---

# test_protocol: Selectivity index, ratio of CC50 for cytotoxicity against human HFF cells infected with VZV Ellen virus assessed as reduction in cell viability by cell titer-glo assay to EC50 for antiviral activity against VZV Ellen infected in HFF cells assessed as inhibition of virus-induced cytopathic effect measured after 14 days
# Format: toxicity, cell-based
# run_parameters: read-out: Ratio CC50/EC50
Measured selectivity ratio at 336 h of individual entries
quantity_measured: selectivity ratio at 336 h

molecule: C#CC(CO)(Cn1cc(C)c(=O)[nH]c1=O)OCP(=O)(O)O (racemic)
observed_measurement: 5

molecule: C#CC(CO)(Cn1ccc(N)nc1=O)OCP(=O)(O)O (racemic)
observed_measurement: > 10

molecule: C#CC(CO)(Cn1ccc(=O)[nH]c1=O)OCP(=O)(O)O (racemic)
observed_measurement: > 7

molecule: C#CC(CO)(Cn1cnc2c(N)ncnc21)OCP(=O)(O)O (racemic)
observed_measurement: < 4

molecule: C#CC(CO)(Cn1cnc2c(=O)[nH]c(N)nc21)OCP(=O)(O)O (stereo not given)
observed_measurement: > 1

---

# Test system: Human immunodeficiency virus 1
# test_protocol: Anti-HIV activity against wild type HIV-1 IIIB infected in human MT4 cells assessed as inhibition of HIV-induced cytopathic effect measured after 5 days by MTT assay
# Type: functional, organism-based
# run_parameters: Human immunodeficiency virus 1, IIIB, MT4, 120 h
pEC50: −log10 of the molar value.

compound: CC(CO)(Cn1cnc2c(N)ncnc21)OCP(=O)(O)O (racemic)
pEC50: < 3.45
//
compound: Cc1cn(CC(C)(CO)OCP(=O)(O)O)c(=O)[nH]c1=O (racemic)
pEC50: < 3.39
//
compound: C#CC(CO)(Cn1ccc(=O)[nH]c1=O)OCP(=O)(O)O (racemic)
pEC50: < 3.39
//
compound: CC(CO)(Cn1ccc(=O)[nH]c1=O)OCP(=O)(O)O (racemic)
pEC50: < 3.37
//
compound: C#CC(CO)(Cn1cnc2c(N)ncnc21)OCP(=O)(O)O (racemic)
pEC50: 4.58
//
compound: C#CC(CO)(Cn1ccc(N)nc1=O)OCP(=O)(O)O (racemic)
pEC50: < 3.38
//
compound: C#CC(CO)(Cn1cnc2c(=O)[nH]c(N)nc21)OCP(=O)(O)O (stereo unspecified)
pEC50: 5.43
//
compound: C#CC(CO)(Cn1cc(C)c(=O)[nH]c1=O)OCP(=O)(O)O (racemic)
pEC50: < 3.41
//
compound: Nc1ccn([C@@H]2CS[C@H](CO)O2)c(=O)n1
pEC50: 5.60
//
compound: CC(CO)(Cn1ccc(N)nc1=O)OCP(=O)(O)O (racemic)
pEC50: < 3.37
//
compound: CC(CO)(Cn1cnc2c(=O)[nH]c(N)nc21)OCP(=O)(O)O (racemic)
pEC50: 4.49

---

# Tested on: Hepatitis B virus
# test_protocol: Antiviral activity against wild type HBV infected in human HepG2 2.2.15 cells assessed as reduction in viral replication pre incubated for 3 days followed by replacement with fresh compounds for another 3 days prior to pronase treatment by RT-qPCR analysis
# Format: functional, organism-based, HepG2.2.15
# run_parameters: HepG2.2.15
Measured log10(EC50) of individual entries
quantity_measured: log10(EC50) (log10 of the value in nM)

molecule: C#CC(CO)(Cn1ccc(=O)[nH]c1=O)OCP(=O)(O)O (racemic)
log10(EC50): 4.32

molecule: C#C[C@](CO)(Cn1cnc2c(=O)[nH]c(N)nc21)OCP(=O)(O)O
log10(EC50): 2.70

molecule: C#C[C@@](CO)(Cn1cnc2c(=O)[nH]c(N)nc21)OCP(=O)(N[C@@H](Cc1ccccc1)C(=O)OCCC)N[C@@H](Cc1ccccc1)C(=O)OCCC
log10(EC50): 0.97

molecule: Nc1ccn([C@@H]2CS[C@H](CO)O2)c(=O)n1
log10(EC50): 1.60

molecule: CC(CO)(Cn1cnc2c(=O)[nH]c(N)nc21)OCP(=O)(O)O (racemic)
log10(EC50): 2.15

molecule: CC(CO)(Cn1cnc2c(N)ncnc21)OCP(=O)(O)O (racemic)
log10(EC50): 2.91

molecule: C[C@@](CO)(Cn1cnc2c(=O)[nH]c(N)nc21)OCP(=O)(O)O
log10(EC50): 1.63

molecule: C#CC(CO)(Cn1cnc2c(N)ncnc21)OCP(=O)(O)O (racemic)
log10(EC50): 4.40

molecule: C#CC(CO)(Cn1cnc2c(=O)[nH]c(N)nc21)OCP(=O)(O)O (stereo unspecified)
log10(EC50): 2.57

molecule: C#C[C@@](CO)(Cn1cnc2c(=O)[nH]c(N)nc21)OCP(=O)(O)O
log10(EC50): 1.27

molecule: C[C@](CO)(Cn1cnc2c(=O)[nH]c(N)nc21)OCP(=O)(O)O
log10(EC50): 2.53
